meta.source: the supplement of paper PMC10567573

Give protein stability index for every item shown.
B1: KRT34 (parent)
chain: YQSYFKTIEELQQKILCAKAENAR

variants of: B1; assay: protein stability index of a GFP-peptide fusion (GPS, HEK-293T) (PSI 1-6); higher = more stable; settings: c terminus: a fixed tail appended;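 also: lentivirally expressed fusions sorted by FACS into six bins by GFP to DsRed ratio, PSI derived from sequencing read proportions per bin multiplied by bin number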
Form field (numeric): enter value without unit.

Identify measured protein stability index associated with "Y1H" 2.56

Identify measured protein stability index associated with "F5M" 2.62

Identify measured protein stability index associated with "Q13G" 1.96

Identify measured protein stability index associated with "F5E" 4.08

Identify measured protein stability index associated with "K6W" 2.18

Identify measured protein stability index associated with "F5G" 3.23

Identify measured protein stability index associated with "Q2W" 2.39

Identify measured protein stability index associated with "I8Y" 2.52

Identify measured protein stability index associated with "I8T" 1.35

Identify measured protein stability index associated with "I15L" 1.95

Identify measured protein stability index associated with "L16Q" 1.66

Identify measured protein stability index associated with "Y1M" 2.1

Identify measured protein stability index associated with "A20K" 2.16

Identify measured protein stability index associated with "R24A" 1.52

Identify measured protein stability index associated with "E21K" 1.99

Identify measured protein stability index associated with "A20Y" 1.3

Identify measured protein stability index associated with "Y1N" 3.45

Identify measured protein stability index associated with "Q13A" 2.02

Identify measured protein stability index associated with "N22A" 1.69

Identify measured protein stability index associated with "K19T" 1.39

Identify measured protein stability index associated with "A20C" 2.01

Identify measured protein stability index associated with "A18P" 2.21

Identify measured protein stability index associated with "E21Q" 1.89

Identify measured protein stability index associated with "E21M" 1.26

Identify measured protein stability index associated with "F5S" 2.73

Identify measured protein stability index associated with "N22E" 1.89

Identify measured protein stability index associated with "I8S" 1.77

Identify measured protein stability index associated with "A18T" 2.1

Identify measured protein stability index associated with "S3C" 1.96

Identify measured protein stability index associated with "E9A" 1.77

Identify measured protein stability index associated with "Y4S" 2

Identify measured protein stability index associated with "A23M" 1.88

Identify measured protein stability index associated with "A18W" 2.73

Identify measured protein stability index associated with "Y4T" 2.98

Identify measured protein stability index associated with "Q12P" 1.4

Identify measured protein stability index associated with "C17K" 2.51

Identify measured protein stability index associated with "E10Q" 1.19

Identify measured protein stability index associated with "K19G" 1.92

Identify measured protein stability index associated with "T7P" 1.77

Identify measured protein stability index associated with "K6R" 1.82

Identify measured protein stability index associated with "A18N" 2.07

Identify measured protein stability index associated with "L16Y" 2.28

Identify measured protein stability index associated with "I8E" 2.6

Identify measured protein stability index associated with "E10S" 1.83

Identify measured protein stability index associated with "N22D" 2.54

Identify measured protein stability index associated with "R24Q" 3.56
